- Tested on: HepG2
- procedure details: Cytotoxicity against human HepG2 cells assessed as reduction in cell viability measured after 48 hrs by MTT assay
- Format: cell-based
- settings: HepG2, 48 h
Listed here are compounds together with their documented EC50.

Solved entries:
| smiles record | EC50 |
| --- | --- |
| COc1ccc(/C=C2\SC(=O)N(CC(=O)O)C2=O)cc1 | > 500 µM |
| COc1ccc(/C=C2\NC(=O)N(CC(=O)O)C2=O)cc1 | > 500 µM |
| COc1ccc(/C=C2\SC(=O)NC2=O)cc1 | 200 µM |
| COc1ccc(/C=C2\NC(=S)N(CC(=O)O)C2=O)cc1 | > 500 µM |

**Q:** Give EC50 for the following compound: "COc1ccc(/C=C2\SC(=S)N(CC(=O)O)C2=O)cc1"
**A:** 200 µM

**Q:** Give EC50 for the following compound: "O=C(O)CN1C(=O)S/C(=C\c2cccs2)C1=O"
**A:** > 500 µM

**Q:** Give EC50 for the following compound: "O=C(O)CN1C(=O)S/C(=C\c2ccsc2)C1=O"
**A:** > 500 µM

**Q:** Give EC50 for the following compound: "O=C(O)CN1C(=O)S/C(=C\c2cccc3ccccc23)C1=O"
**A:** > 500 µM

**Q:** Give EC50 for the following compound: "O=C(O)CN1C(=O)S/C(=C\c2ccc(OCc3ccccc3)cc2)C1=O"
**A:** 200 µM

**Q:** Give EC50 for the following compound: "COc1ccc(/C=C2\SC(=O)N(CC(=O)O)C2=O)cn1"
**A:** > 500 µM

**Q:** Give EC50 for the following compound: "O=C(O)CN1C(=O)S/C(=C\c2ccc3ccccc3c2)C1=O"
**A:** 200 µM

====

- procedure details: Inhibition of Campylobacter jejuni DHDPS using ASA as a substrate in presence of NADPH by DHDPS-DHDPR coupled assay
measured metric: Ki (nM)
State the answer as a number, implicitly in nM.

**Q:** Give Ki for the following compound: "NCCCC[C@@](N)(CC[C@](N)(CCCCN)C(=O)O)C(=O)O"
**A:** 140

====

- procedure details: Inhibition of Escherichia coli recombinant his-tagged DHDPS using (S)-aspartate-semialdehyde as a substrate preincubated for 12 mins followed by substrate addition by UV-Vis spectrophotometer based coupled DHDPS-DHDPR assay
measured metric: IC50

Solved entries:
| molecule | IC50 |
| --- | --- |
| COc1ccc(CC2SC(=O)N(CC(=O)O)C2=O)cc1 (centres undefined) | > 500 µM |
| COc1ccc(/C=C2\SC(=O)N(CCC(=O)O)C2=O)cc1 | > 250 µM |
| CN(C)c1ccc(/C=C2\SC(=O)N(CC(=O)O)C2=O)cc1 | > 500 µM |

**Q:** Give IC50 for the following molecule: "COc1ccc(/C=C2\SC(=S)NC2=O)cc1"
**A:** > 500 µM

Numbers sourced from ChEMBL document CHEMBL4840371.
